Catalogue of residual activity values
measuredTarget: Serine/threonine-protein kinase tousled-like 2 (Homo sapiens)
condition: at 10 µM
Please state the number and follow it with the unit.

The cases that follow already have their residual activity on record.
>>> df
                                   molecule  reportedvalue
0          O=c1cc(N2CCOCC2)oc2c1ccc1ccccc12            92%
1  NC(=O)c1ccc(-c2nc(-c3ccc4c(c3)OCCO4)c(-c3ccccn3)[nH]2)cc1            87%
2  CN(C)S(=O)(=O)c1ccc2c(c1)/C(=C/c1cc3c([nH]1)CCCC3)C(=O)N2            95%

Q: Report residual activity for "CCCCc1c(-c2ccc(O)cc2)[nH]c2nccnc12" tested on Serine/threonine-protein kinase tousled-like 2 (Homo sapiens).
Result: 80%

Q: Report residual activity for "CCCC(=O)Oc1ccc2[nH]c(C(=O)c3cc4ccccc4[nH]3)cc2c1" tested on Serine/threonine-protein kinase tousled-like 2 (Homo sapiens).
Result: 90%

Q: Report residual activity for "CC(C)(C)n1nc(Cc2cccc3ccccc23)c2c(N)ncnc21" tested on Serine/threonine-protein kinase tousled-like 2 (Homo sapiens).
Result: 97%

Q: Report residual activity for "Cn1sc(=O)n(Cc2ccccc2)c1=O" tested on Serine/threonine-protein kinase tousled-like 2 (Homo sapiens).
Result: 80%

Q: Report residual activity for "O=C1Nc2ccc(Cl)cc2/C1=C/c1cc(Cl)c(O)c(Cl)c1" tested on Serine/threonine-protein kinase tousled-like 2 (Homo sapiens).
Result: 87%

Q: Report residual activity for "c1ccc(-c2cnc(Nc3ccc(OCCN4CCCC4)cc3)s2)cc1" tested on Serine/threonine-protein kinase tousled-like 2 (Homo sapiens).
Result: 81%

Q: Report residual activity for "Nc1nc(Nc2ccc(S(N)(=O)=O)cc2)nn1C(=O)c1c(F)cccc1F" tested on Serine/threonine-protein kinase tousled-like 2 (Homo sapiens).
Result: 17%

Q: Report residual activity for "COc1cc2ncnc(Nc3cccc(Cl)c3)c2cc1OC" tested on Serine/threonine-protein kinase tousled-like 2 (Homo sapiens).
Result: 101%

Q: Report residual activity for "CCN(CC)CCNC(=O)c1c(C)[nH]c(/C=C2\C(=O)Nc3ccc(Cl)cc32)c1C" tested on Serine/threonine-protein kinase tousled-like 2 (Homo sapiens).
Result: 14%

Q: Report residual activity for "O=C1NC(=O)C(c2cn(CCCO)c3ncccc23)=C1c1cnccn1" tested on Serine/threonine-protein kinase tousled-like 2 (Homo sapiens).
Result: 82%

Q: Report residual activity for "COc1cc2nccc(Oc3ccc(NC(=S)NC(=O)c4ccccc4C)cc3)c2cc1OC" tested on Serine/threonine-protein kinase tousled-like 2 (Homo sapiens).
Result: 85%

Q: Report residual activity for "COc1ccc(CNC(=O)Nc2ncc([N+](=O)[O-])s2)cc1" tested on Serine/threonine-protein kinase tousled-like 2 (Homo sapiens).
Result: 74%

Q: Report residual activity for "NC(=O)Nc1sc(-c2ccc(F)cc2)cc1C(N)=O" tested on Serine/threonine-protein kinase tousled-like 2 (Homo sapiens).
Result: 27%

Q: Report residual activity for "CC(C)[C@H](CO)Nc1nc(Nc2cc(N)cc(Cl)c2)c2ncn(C(C)C)c2n1" tested on Serine/threonine-protein kinase tousled-like 2 (Homo sapiens).
Result: 73%

Q: Report residual activity for "O=C1NC(=O)c2c1c1c3ccccc3[nH]c1n1cncc21" tested on Serine/threonine-protein kinase tousled-like 2 (Homo sapiens).
Result: 58%

Q: Report residual activity for "N#Cc1c(NC(=O)c2cccc3ccccc23)sc2c1CCCC2" tested on Serine/threonine-protein kinase tousled-like 2 (Homo sapiens).
Result: 96%

Q: Report residual activity for O=C(NC(NC(=S)Nc1ccc(F)c([N+](=O)[O-])c1)C(Cl)(Cl)Cl)C(c1ccccc1)c1ccccc1 (stereo not given) tested on Serine/threonine-protein kinase tousled-like 2 (Homo sapiens).
Result: 94%

---

measuredTarget: Serine/threonine-protein kinase TAO1 (Homo sapiens) (UniProt Q7L7X3)
Sequence (Q7L7X3 whole entry): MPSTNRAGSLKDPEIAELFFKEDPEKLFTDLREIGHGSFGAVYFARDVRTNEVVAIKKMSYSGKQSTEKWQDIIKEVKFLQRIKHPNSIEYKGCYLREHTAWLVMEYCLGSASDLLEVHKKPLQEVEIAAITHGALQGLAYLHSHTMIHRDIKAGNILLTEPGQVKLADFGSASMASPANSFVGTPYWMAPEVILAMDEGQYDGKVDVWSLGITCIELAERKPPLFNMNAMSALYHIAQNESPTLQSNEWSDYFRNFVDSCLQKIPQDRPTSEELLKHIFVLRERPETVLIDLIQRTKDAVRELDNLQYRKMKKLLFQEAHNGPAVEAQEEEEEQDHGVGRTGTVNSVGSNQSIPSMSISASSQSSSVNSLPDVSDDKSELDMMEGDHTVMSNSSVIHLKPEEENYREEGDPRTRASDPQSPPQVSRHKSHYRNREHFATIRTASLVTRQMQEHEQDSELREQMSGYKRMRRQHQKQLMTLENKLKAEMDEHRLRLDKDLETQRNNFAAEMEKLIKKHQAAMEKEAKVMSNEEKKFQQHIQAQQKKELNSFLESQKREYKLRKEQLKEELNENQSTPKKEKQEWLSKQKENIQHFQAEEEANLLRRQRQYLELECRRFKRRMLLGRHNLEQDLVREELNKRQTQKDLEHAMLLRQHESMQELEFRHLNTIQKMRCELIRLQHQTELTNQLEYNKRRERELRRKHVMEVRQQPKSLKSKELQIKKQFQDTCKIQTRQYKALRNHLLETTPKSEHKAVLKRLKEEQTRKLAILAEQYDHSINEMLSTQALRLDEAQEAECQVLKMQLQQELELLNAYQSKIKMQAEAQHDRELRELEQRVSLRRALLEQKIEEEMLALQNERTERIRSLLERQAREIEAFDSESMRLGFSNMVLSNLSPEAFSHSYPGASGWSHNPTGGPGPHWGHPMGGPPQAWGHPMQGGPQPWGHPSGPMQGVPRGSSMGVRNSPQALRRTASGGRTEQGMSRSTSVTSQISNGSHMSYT
condition: at 1 µM
Catalogue of residual activity values
Kindly answer with a numeric value in %, unit omitted.

The cases that follow already have their residual activity on record.
>>> df
                                   compound  reportedvalue
0          O=c1cc(N2CCOCC2)oc2c1ccc1ccccc12            102
1  Cn1c2ccccc2c2c3c(c4c5ccccc5n(CCC#N)c4c21)CNC3=O              7
2  NCCNc1ncc(C(N)=O)c(Nc2cccc(C(F)(F)F)c2)n1             78

Q: What residual activity value was documented for this compound, "O=C1Nc2ccc(Cl)cc2/C1=C/c1cc(Cl)c(O)c(Cl)c1" ?
Result: 62

Q: What residual activity value was documented for this compound, O=C(NC(NC(=S)Nc1ccc(F)c([N+](=O)[O-])c1)C(Cl)(Cl)Cl)C(c1ccccc1)c1ccccc1 (configuration not stated) ?
Result: 93

Q: What residual activity value was documented for this compound, "Nc1nc(Nc2ccc(S(N)(=O)=O)cc2)nn1C(=O)c1c(F)cccc1F" ?
Result: 15

Q: What residual activity value was documented for this compound, "CCN1/C(=C/C(C)=O)Sc2ccc(OC)cc21" ?
Result: 75

---

measuredTarget: ALK tyrosine kinase receptor (Homo sapiens)
condition: at 1 µM
If the reported residual activity equals or exceeds 70%, assign Yes. If not, assign No.

Would you please look over these solved cases?
In [3]: df
Out[3]:
                                   compound  categorylabel
0                   Nc1n[nH]c2nc3ccccc3nc12             No
1  CSc1nc(-c2ccc(F)cc2)c(-c2ccnc(NC(C)c3ccccc3)c2)[nH]1 (configuration not stated)            Yes
2  CCCC(=O)Oc1ccc2[nH]c(C(=O)c3cc4ccccc4[nH]3)cc2c1            Yes

Q: Test whether the compound "CC(C)N(CCC(=O)c1ccc2ccccc2c1)Cc1ccccc1" records residual activity of 70% or higher.
Result: Yes

Q: Test whether the compound O=C(NC(NC(=S)Nc1ccc(F)c([N+](=O)[O-])c1)C(Cl)(Cl)Cl)C(c1ccccc1)c1ccccc1 (configuration not stated) records residual activity of 70% or higher.
Result: Yes

Q: Test whether the compound "O=C1Cc2c([nH]c3ccc(Br)cc23)-c2ccccc2N1" records residual activity of 70% or higher.
Result: Yes

Q: Test whether the compound "Fc1ccc(-c2nc3n(c2-c2ccncc2)CCS3)cc1" records residual activity of 70% or higher.
Result: Yes

Q: Test whether the compound "COc1cc2nccc(Oc3ccc(NC(=S)NC(=O)c4ccccc4C)cc3)c2cc1OC" records residual activity of 70% or higher.
Result: Yes

Q: Test whether the compound "CC(C)c1nn(-c2c(Cl)cccc2Cl)c2nc(Cc3ccc(OCCO)cc3)[nH]c(=O)c12" records residual activity of 70% or higher.
Result: Yes

Q: Test whether the compound "CCN(CC)CCNC(=O)c1c(C)[nH]c(/C=C2\C(=O)Nc3ccc(Cl)cc32)c1C" records residual activity of 70% or higher.
Result: No

Q: Test whether the compound "NC(=O)Nc1sc(-c2ccc(F)cc2)cc1C(N)=O" records residual activity of 70% or higher.
Result: Yes

Q: Test whether the compound "O=C(c1ccccc1)c1ccc(N2CCOCC2)cc1O" records residual activity of 70% or higher.
Result: Yes

Q: Test whether the compound "Cc1cc(C)c(/C=C2\C(=O)Nc3ccccc32)[nH]1" records residual activity of 70% or higher.
Result: No

Q: Test whether the compound "NC(=O)c1ccc(-c2nc(-c3ccc4c(c3)OCCO4)c(-c3ccccn3)[nH]2)cc1" records residual activity of 70% or higher.
Result: Yes

---

measuredTarget: Tyrosine-protein kinase receptor TYRO3 (Homo sapiens)
condition: at 1 µM
If the reported residual activity equals or exceeds 70%, assign Satisfied. If not, assign Not satisfied.

Would you please look over these solved cases?
>>> print(df.to_string())
                          compoundstructure                            measuredtarget  categorylabel
0  CCCC(=O)Oc1ccc2[nH]c(C(=O)c3cc4ccccc4[nH]3)cc2c1  Tyrosine-protein kinase receptor TYRO3 (Homo sapiens)      Satisfied
1  CC(C)(C)n1nc(Cc2cccc3ccccc23)c2c(N)ncnc21  Tyrosine-protein kinase receptor TYRO3 (Homo sapiens)      Satisfied
2  O=C(c1cc2cc(O)ccc2[nH]1)c1cc2cc(O)ccc2[nH]1  Tyrosine-protein kinase receptor TYRO3 (Homo sapiens)  Not satisfied
3  CCN(CC)CCNC(=O)c1c(C)[nH]c(/C=C2\C(=O)Nc3ccc(Cl)cc32)c1C  Tyrosine-protein kinase receptor TYRO3 (Homo sapiens)  Not satisfied
4        CCCCc1c(-c2ccc(O)cc2)[nH]c2nccnc12  Tyrosine-protein kinase receptor TYRO3 (Homo sapiens)      Satisfied

Q: Test whether the compound "CC(C)c1nn(-c2c(Cl)cccc2Cl)c2nc(Cc3ccc(OCCO)cc3)[nH]c(=O)c12" records residual activity of 70% or higher.
Result: Satisfied

Q: Test whether the compound "O=c1cc(N2CCOCC2)oc2c1ccc1ccccc12" records residual activity of 70% or higher.
Result: Satisfied

Q: Test whether the compound "O=c1cc(N2CCNCC2)oc2c(-c3ccccc3)cccc12" records residual activity of 70% or higher.
Result: Satisfied

Q: Test whether the compound "COc1cc2nccc(Oc3ccc(NC(=S)NC(=O)c4ccccc4C)cc3)c2cc1OC" records residual activity of 70% or higher.
Result: Not satisfied

Q: Test whether the compound "O=C(O)/C=C/c1cc(Br)c(Br)c(Br)c1Br" records residual activity of 70% or higher.
Result: Satisfied
